Reference source: patent US20100279997A1

Below: a set of entries, each annotated with reported [35S]GTPγS binding to Gαo, FLNA-binding compound as agonist 1 μM + BFNA.
- experimental-target: μ opiate receptor (MOR) (Rattus norvegicus)
- Construct: from tissue; host or cells: striatal tissue (membrane preparation)
- Sequence (P33535 whole entry): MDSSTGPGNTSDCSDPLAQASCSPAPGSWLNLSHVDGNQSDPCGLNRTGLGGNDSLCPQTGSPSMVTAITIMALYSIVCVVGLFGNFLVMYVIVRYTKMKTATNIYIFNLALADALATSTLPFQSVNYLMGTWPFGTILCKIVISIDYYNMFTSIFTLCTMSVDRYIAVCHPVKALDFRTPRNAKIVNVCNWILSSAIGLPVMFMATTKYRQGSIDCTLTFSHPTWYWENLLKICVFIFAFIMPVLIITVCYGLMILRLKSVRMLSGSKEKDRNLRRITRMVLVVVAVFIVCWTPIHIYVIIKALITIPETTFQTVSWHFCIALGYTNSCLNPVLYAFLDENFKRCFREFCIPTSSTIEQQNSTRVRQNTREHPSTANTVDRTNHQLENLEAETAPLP
- assay-details: MOR agonist activity, [35S]GTPγS binding assay using striatal membranes
- Type: biochemical
- condition-info: 1 μM compound + 1 μM β-funaltrexamine
- Procedure: To assess the μ opiate receptor (MOR) agonist activity of positive compounds from the FLNA screening, compounds were tested in a [^35S]GTPγS binding assay using striatal membranes. […] The immunocomplexes so formed were collected by incubation at 25° C. for 30 minutes with 40 μl of agarose-conjugated protein A/G beads and centrifugation at 5,000×g at 4° C. for 5 minutes. […] The radioactivity in the suspension was determined by liquid scintillation spectrometry. […]
recorded-metric: [35S]GTPγS binding to Gαo, FLNA-binding compound as agonist 1 μM + BFNA

CCN(CC)CC(O)COC1CC(C)CCC1C(C)C (stereo not drawn): 133.0%
CC1CCC(C(C)C)C(OCC(O)CN2CCSC2)C1 (stereo not drawn): 6.5%
COc1ccc(OCC(O)CN2CCc3cc4c(c(OC)c3C2)OCO4)cc1 (stereo not drawn): 80.3%
OC(COc1ccc(Br)c(F)c1)CN1CCN(CCN2CCOCC2)CC1 (stereo not drawn): 310%
CC1CCC(C)C(OCC(O)CN2CC(C)OC(C)C2)C1 (stereo not drawn): 28.0%
CC(=O)c1ccc(OCC(O)CN2CC(C)OC(C)C2)cc1 (stereo not drawn): 134.7%
CC1CN(CC(O)COc2ccc(Br)c(Cl)c2)CC(C)O1 (stereo not drawn): 99.2%
Cc1ccc(C(C)C)c(OCC(O)CN2CC(C)OC(C)C2)c1 (stereo not drawn): 116.7%
CC1CN(CC(O)COc2cc(F)cc(F)c2)CC(C)O1 (stereo not drawn): 140.0%
